- experimental_target: T1, purified recombinant monkey (macaque) CD27 (macaque)
- T1 construct: The paragraph speaks of cynomolgus macaques as the model; the protein itself is only called macaque / monkey CD27; Captured with anti-Flag antibody in one format; also called monkey CD27
- protocol_text: ELISA on plate-bound monkey CD27, half-max binding
Entries and their measured EC50 follow.
property: EC50

binder	test_result
1F5-1H5 (antibody, V domains shown, Fully human IgG from HuMAb mouse hybridoma, protein A purified; Human IgG1 is used as its isotype control; also called mAb 1F5; anti-CD27 mAb 1F5) VH: QVQLVESGGGVVQPGRSLRLSCAASGFTFSSYDMHWVRQAPGKGLEWVAVIWYDGSNKYYADSVKGRFTISRDNSKNTLYLQMNSLRAEDTAVYYCARGSGNWGFFDYWGQGTLVTVSS VL: DIQMTQSPSSLSASVGDRVTITCRASQGISRWLAWYQQKPEKAPKSLIYAASSLQSGVPSRFSGSGSGTDFTLTISSLQPEDFATYYCQQYNTYPRTFGQGTKVEIK	0.12 µg/mL
3H8-1B11 (antibody, V domains shown, Human IgG from hybridoma) VH: EVQLVESGGGLVQPGGSLRLSCAASGFTFSSYWMAWVRQAPGKGLEWLGNIKQDGSEKYYVDSVKGRFTISRDNAKNSLYLQMNSLRAEDTAVYYCVRELGMDWYFDLWGRGTLVTVSS VL: EIVLTQSPATLSLSPGERATLSCRASQSVDSYLAWYQQKPGQAPRLLIYDASNRATGIPARFSGSGSGTDFTLTISNLEPEDFAVYYCQQRSNWPPTFGQGTKVEIK	0.065 µg/mL
2C2-1A10 (antibody, V domains shown, Human IgG from hybridoma) VH: QVQLVESGGGVVQPGRSLRLSCAASGFTFSSYDIHWVRQAPGKGLEWVAVIWNDGSNKYYADSVKGRFTISRDNSTNSLFLQMNSLRAEDTAVYYCVGGTADLEHWDQGTLVTVSS VL: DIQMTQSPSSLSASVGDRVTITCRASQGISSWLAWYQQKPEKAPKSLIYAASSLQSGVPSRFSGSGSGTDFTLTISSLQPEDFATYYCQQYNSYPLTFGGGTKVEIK	0.034 µg/mL

Recorded values, source patent US20120213771A1.
